System: E. coli TESEC Mtb Alr
Test: growth (OD600 after 10 h); higher = more growth (less inhibition)
Assay conditions: arabinose 10000000 nM; compound 0.1 mM; raw OD600 reference: median of DMSO wells 0.146, cell-free background 0.041
Structures can show the parent of a compound that is named as a salt.
Form field: growth (one value per entry).
Write the value as a bare number.

Worked cases, answers included:
Lab note: measured growth of C[C@@H](c1ncncc1F)[C@](O)(Cn1cncn1)c1ccc(F)cc1F [Voriconazole] was 0.147

Lab note: measured growth of CCCc1ncc(C[n+]2ccccc2C)c(N)n1 [Amprolium hydrochloride] was 0.142

Next:
Lab note: measured growth of Cc1cc(=O)oc2cc(O)ccc12 [Hymecromone] was 0.148

Lab note: measured growth of CC(C)(C)NC[C@@H](O)COc1cccc2c1CCCC2=O [(+) -Levobunolol hydrochloride] was 0.136

Lab note: measured growth of Clc1ccc(COC(Cn2ccnc2)c2ccc(Cl)cc2Cl)c(Cl)c1 (centres undefined) [Miconazole] was 0.141

Lab note: measured growth of O=C(OCCOCCO)c1ccccc1Nc1cccc(C(F)(F)F)c1 [Etofenamate] was 0.0499

Lab note: measured growth of CC[N+](CC)(CC(=O)Nc1c(C)cccc1C)Cc1ccccc1 [Denatonium benzoate] was 0.132

Lab note: measured growth of C/C(=C(\CCOP(=O)(O)O)SC(=O)c1ccccc1)N(C=O)Cc1cnc(C)nc1N [Benfotiamine] was 0.141

Lab note: measured growth of CC[C@]12CCCN3CCc4c(n(c5ccccc45)C(=O)C1)[C@@H]32 [Eburnamonine (-)] was 0.135

Lab note: measured growth of c1ccc2c(c1)CCCC2C1=NCCN1 (centres undefined) [Tetrahydrozoline hydrochloride] was 0.14

Lab note: measured growth of CCn1cc(C(=O)O)c(=O)c2cc(F)c(N3CCNCC3)nc21 [Enoxacin] was 0.0452

Lab note: measured growth of CCOC1O[C@H]([C@@H](COCc2ccccc2)OCc2ccccc2)[C@H](OCc2ccccc2)[C@H]1O (some centres undefined) [Tribenoside] was 0.154

Lab note: measured growth of CCCCOc1cc(C(=O)OCCN(CC)CC)ccc1N [Benoxinate hydrochloride] was 0.143

Lab note: measured growth of CC[C@H]1OC(=O)[C@H](C)[C@@H](O[C@H]2C[C@@](C)(OC)[C@@H](O)[C@H](C)O2)[C@H](C)[C@@H](O[C@@H]2O[C@H](C)C[C@H](N(C)C)[C@H]2O)[C@](C)(O)C[C@@H](C)[C@@H]2N[C@@H](COCCOC)O[C@H]([C@H]2C)[C@]1(C)O [Dirithromycin] was 0.0428

Lab note: measured growth of Cc1cccc(CN2CCN(C(c3ccccc3)c3ccc(Cl)cc3)CC2)c1 (centres undefined) [Meclozine dihydrochloride] was 0.185

Lab note: measured growth of Nc1ccc(S(N)(=O)=O)cc1 [Sulfanilamide] was 0.142

Lab note: measured growth of Cc1c(OCC(F)(F)F)ccnc1C[S+]([O-])c1nc2ccccc2[nH]1 (centres undefined) [Lansoprazole] was 0.14

Lab note: measured growth of Cc1c(O)cccc1C(=O)N[C@@H](CSc1ccccc1)[C@H](O)CN1C[C@H]2CCCC[C@H]2C[C@H]1C(=O)NC(C)(C)C [Nelfinavir mesylate] was 0.276

Lab note: measured growth of Cc1ncc([N+](=O)[O-])n1CC(O)CCl (centres undefined) [Ornidazole] was 0.139
